Origin of measurements: ChEMBL document CHEMBL3507680

Please respond with reported cytotoxicity at 70.5 h for every item in the list.
# Assay summary: Human HepG2 cell viability assay in 384 well format
# Assay type: toxicity, cell-based
# Design: dose 125 nL, time 70.5 hour; concentration not given beside the values
# Conditions used: HepG2 cells, read-out: Inhibition

Ask | May I ask what cytotoxicity at 70.5 h has been recorded for `O=C(c1cc[nH]n1)N(Cc1ccccc1)CC1CCC1` ?
Reply | -9.65%

Ask | May I ask what cytotoxicity at 70.5 h has been recorded for `CCCn1cc(-c2cc(-c3cc(CC)n[nH]3)c(C#N)c(N)n2)c(C)n1` ?
Reply | -3.18%

Ask | May I ask what cytotoxicity at 70.5 h has been recorded for `CC(C)C[C@H](NCc1cc(O)c2cccc(F)c2n1)C(N)=O` ?
Reply | -11.8%

Ask | May I ask what cytotoxicity at 70.5 h has been recorded for `COc1cccc(-c2nc(CNCCn3cccn3)cs2)c1` ?
Reply | -7.96%

---

Please respond with reported cytotoxicity at 70.5 h for every item in the list.
# Assay summary: Human HepG2 cell viability assay in 384 well format
# Type: toxicity, cell-based
# Parameters: dose 125 nL, time 70.5 hour; concentration not given beside the values
# Conditions used: HepG2 cells, read-out: Inhibition
The reply should contain only the number, in %.

Ask | May I ask what cytotoxicity at 70.5 h has been recorded for `COC(=O)c1cccc(C(=O)N2CCN(C(=O)N(C)C)CC2(C)C)c1` ?
Reply | 16.9

Ask | May I ask what cytotoxicity at 70.5 h has been recorded for Cc1ncc(CC(=O)N2CCCC(COc3ccccc3F)C2)c(=O)[nH]1 (stereo not drawn) ?
Reply | -9.07

Ask | May I ask what cytotoxicity at 70.5 h has been recorded for `Cc1csc(CNC(=O)N2CCN(Cc3cc(C)on3)CC2)n1` ?
Reply | -3.55

Ask | May I ask what cytotoxicity at 70.5 h has been recorded for O=C1NCC2(CCCN(C(=O)c3c[nH]nc3-c3cccs3)C2)O1 (stereo not drawn) ?
Reply | -8.3

Ask | May I ask what cytotoxicity at 70.5 h has been recorded for O=C(c1ccc(N2CCOCC2)cc1)N1CCCC(n2ccnc2)C1 (stereo not drawn) ?
Reply | 20.8

Ask | May I ask what cytotoxicity at 70.5 h has been recorded for `C=C(C)CN1CCN(Cc2cnc(-c3ccccc3C)nc2)CC1` ?
Reply | 23.9

Ask | May I ask what cytotoxicity at 70.5 h has been recorded for `Cc1cnnn1Cc1nnn2c1CN(Cc1ccccn1)CCC2` ?
Reply | -7.24

Ask | May I ask what cytotoxicity at 70.5 h has been recorded for `CN(C)CCOCc1cncc2c1CCN(Cc1ccccn1)C2` ?
Reply | -10.9

---

Please respond with reported cytotoxicity at 70.5 h for every item in the list.
# Assay summary: Human HepG2 cell viability assay in 384 well format
# Format: toxicity, cell-based
# Parameters: dose 125 nL, time 70.5 hour; concentration not given beside the values
# Conditions used: HepG2 cells, read-out: Inhibition
Could you write the number and then its unit?

Ask | May I ask what cytotoxicity at 70.5 h has been recorded for `Cc1cc(Cl)cc(C)c1CNC1CCN(CC(=O)N(C)C)CC1` ?
Reply | -2.67%

Ask | May I ask what cytotoxicity at 70.5 h has been recorded for `CCS(=O)(=O)N1CCC(NC(=O)c2cc3ccccc3cc2O)CC1` ?
Reply | 12.9%

Ask | May I ask what cytotoxicity at 70.5 h has been recorded for `Cn1cccc1C(=O)N1CCn2nnc(COc3cccnc3)c2C1` ?
Reply | -8.46%

Ask | May I ask what cytotoxicity at 70.5 h has been recorded for `COc1ccc(CN2CC[C@H](c3nnc(-c4ccco4)o3)C2)cc1` ?
Reply | 23%

Ask | May I ask what cytotoxicity at 70.5 h has been recorded for Cn1cc(CC(=O)N2CCCC(n3cncn3)C2)cn1 (centres undefined) ?
Reply | -3.54%

Ask | May I ask what cytotoxicity at 70.5 h has been recorded for `c1cc(-c2n[nH]cc2-c2ccnc(N3CCCCCC3)n2)ccn1` ?
Reply | 0.607%

Ask | May I ask what cytotoxicity at 70.5 h has been recorded for Cc1ccc(N2CCCC(NCc3nnc4n3CCCC4)C2=O)cc1 (centres undefined) ?
Reply | -10.2%

Ask | May I ask what cytotoxicity at 70.5 h has been recorded for `O=C(N[C@@H]1CN(Cc2cccs2)[C@@H]2COC[C@@H]21)C1CCC1` ?
Reply | -4.79%

Ask | May I ask what cytotoxicity at 70.5 h has been recorded for `Cc1cc(C)cc(NC(=O)c2cnc(N3CCN(C)CC3)nc2C)c1` ?
Reply | -0.093%

Ask | May I ask what cytotoxicity at 70.5 h has been recorded for COCCCN(Cc1ccc(F)cc1Cl)C1CCS(=O)(=O)C1 (centres undefined) ?
Reply | 1.64%

Ask | May I ask what cytotoxicity at 70.5 h has been recorded for CC(=O)N1CCOC(c2c(C(=O)NCCN(C)C)sc3ccccc23)C1 (centres undefined) ?
Reply | -7.61%

Ask | May I ask what cytotoxicity at 70.5 h has been recorded for CCCc1nnsc1C(=O)NCC(O)c1cccs1 (centres undefined) ?
Reply | -6.4%

Ask | May I ask what cytotoxicity at 70.5 h has been recorded for `CNC(=O)c1cc2c(nc1NCC1CC1)CCN(S(C)(=O)=O)CC2` ?
Reply | -23.3%

Ask | May I ask what cytotoxicity at 70.5 h has been recorded for `CC(=O)N(CCc1ccccc1)CC(=O)Nc1ccccc1C#N` ?
Reply | -1.29%
